glycan array binding signal (z-score) for assorted binders
# ASSAY_TARGET: Neu5Ac9Ac(a2-3)Gal(b1-4)GlcNAc
# RUN_DESCRIPTION: glycan array binding signal (z-score within array); higher = stronger binding
# COND: glycan notation: IUPAC condensed, linker removed
The full list was thinned out, with the strongest signals kept by preference.

Example cases with answers are listed next.
Protein L(B1-B4) (Finegoldia magna), Q51912 (protein) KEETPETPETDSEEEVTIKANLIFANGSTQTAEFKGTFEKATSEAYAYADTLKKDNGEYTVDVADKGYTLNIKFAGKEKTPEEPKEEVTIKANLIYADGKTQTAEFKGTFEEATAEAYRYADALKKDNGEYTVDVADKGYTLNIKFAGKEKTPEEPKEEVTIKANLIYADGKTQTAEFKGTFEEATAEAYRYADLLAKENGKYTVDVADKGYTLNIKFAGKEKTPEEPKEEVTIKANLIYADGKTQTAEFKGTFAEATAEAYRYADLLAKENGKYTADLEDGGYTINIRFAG ... 0.223
HA-00510 (Pseudomonas aeruginosa), Q02V39_PSEAB (protein) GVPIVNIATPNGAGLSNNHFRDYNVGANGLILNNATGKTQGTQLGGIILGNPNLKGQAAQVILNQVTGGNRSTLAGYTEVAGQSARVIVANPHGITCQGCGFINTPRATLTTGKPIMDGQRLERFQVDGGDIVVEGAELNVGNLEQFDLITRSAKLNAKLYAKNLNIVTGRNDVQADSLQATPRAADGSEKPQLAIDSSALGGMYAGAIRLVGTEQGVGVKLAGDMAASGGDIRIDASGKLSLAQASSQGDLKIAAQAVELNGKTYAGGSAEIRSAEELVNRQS ... 0.419
BSR4 (Toxoplasma gondii), Q95NL6 (protein) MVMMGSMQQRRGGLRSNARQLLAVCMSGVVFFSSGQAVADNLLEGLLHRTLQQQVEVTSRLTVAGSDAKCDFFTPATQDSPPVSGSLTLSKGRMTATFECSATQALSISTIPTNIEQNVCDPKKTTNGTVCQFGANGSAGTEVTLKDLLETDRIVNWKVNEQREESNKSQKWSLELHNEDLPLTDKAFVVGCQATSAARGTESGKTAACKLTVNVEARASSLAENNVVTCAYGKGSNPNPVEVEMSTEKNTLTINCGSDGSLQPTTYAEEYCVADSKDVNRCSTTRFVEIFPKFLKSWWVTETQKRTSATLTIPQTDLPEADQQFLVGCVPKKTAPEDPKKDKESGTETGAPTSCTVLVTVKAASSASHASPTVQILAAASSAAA ... 0.407

Now turn to the next binder.
stdin: Could you share which glycan array binding signal (z-score) value was measured for PEB4 (Campylobacter jejuni), A1VYV6 (protein) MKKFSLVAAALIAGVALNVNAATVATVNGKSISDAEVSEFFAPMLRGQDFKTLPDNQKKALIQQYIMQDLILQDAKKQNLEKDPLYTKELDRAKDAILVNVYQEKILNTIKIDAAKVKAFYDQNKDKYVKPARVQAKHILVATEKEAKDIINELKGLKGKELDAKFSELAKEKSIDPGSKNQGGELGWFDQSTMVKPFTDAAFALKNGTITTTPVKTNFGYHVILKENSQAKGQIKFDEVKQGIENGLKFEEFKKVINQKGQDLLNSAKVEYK ?
stdout: -1.05
